assay.details: Oral bioavailability, AUC and plasma concentration of CBD
Type: in vivo, patient
test.context: human, in vivo; oral; read-out: average bioavailability taken for calculation
assay.endpoint: bioavailability (%)

compound | measurement
C=C(C)[C@@H]1CCC(C)=C[C@H]1c1c(O)cc(CCCCC)cc1O [CBD] | 15

Data origin, for the record: patent US12016829B2
